The reported numbers originate from patent US20220331457A1.

target: human carbonic anhydrase IX (CAIX) (human, UniProt Q16790 38-414); assay: SPR (Biacore T200), single cycle kinetics; antibody in HEK EBNA supernatant captured on Protein G chip, CAIX as analyte
Attribute measured: relative KD (against the reference chimeric VH0/Vκ0 IgG1)

1) Girentuximab humanised VH1/Vκ4 IgG1 (antibody, V domains shown) VH: DVKLVESGGGLVKPGGSLRLSCAASGFTFSNYYMSWVRQAPGKGLELVAAINSDGGITYYLDTVKGRFTISRDNAKNTLYLQMSSLKSEDTALYYCARHRSGYFSMDYWGQGTSVTVSS VL: DIQMTQSPSSLSASVGDRVTITCKASQNVVSAVAWYQQKPGQAPRLLIYSASNRYTGVPDRFSGSGSGTDFTLTISSLQAEDLADYYCQQYSNYPWTFGGGTKVEIKR :: ≤ 2 fold
